- targetUnderTest: T1, NHERF1 PDZ2 domain (133-300) (human, UniProt O14745 133-300)
- T1 sequence (looked up): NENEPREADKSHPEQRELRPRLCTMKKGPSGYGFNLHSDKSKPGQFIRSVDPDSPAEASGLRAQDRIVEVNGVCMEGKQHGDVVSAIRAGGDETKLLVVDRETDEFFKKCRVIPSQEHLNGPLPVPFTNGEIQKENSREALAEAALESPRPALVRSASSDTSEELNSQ
- method: SPR
Ends that are not written are not given here. * marks the point of attachment. Biotin = O=C1N[C@H]2[C@H](CS[C@H]2CCCCC(=O)*)N1
quantityKind: Kd (µM)
Kindly provide the numeric value in µM only, without the unit symbol.

Tell me measured Kd for Biotin-DEEASGPERPPALLQEEWETVM [biotinylated carboxy-terminal 22-amino acid PTHR peptide] please.
11.5

Provenance of the data: paper PMC5479578
